molecular target: Adrenergic receptor alpha-1 (Rattus norvegicus, UniProt P15823+P23944+P43140); assay: Displacement of [3H]prazosin from alpha-1 adrenergic receptor of rat brain homogenate
recordedMetric: Ki (nM)
Write the answer as a number in nM, unit excluded.

Fill in Ki for Cc1ccc(CN2CCN(C3CCc4cccc5c4N(C3=O)C(C)C5)CC2)cc1 (stereo not given) tested with Adrenergic receptor alpha-1 (Rattus norvegicus, UniProt P15823+P23944+P43140).
1000

Fill in Ki for O=C1C(N2CCN(Cc3ccc(Cl)cc3)CC2)CCc2cccc3c2N1CC3 (stereo not given) tested with Adrenergic receptor alpha-1 (Rattus norvegicus, UniProt P15823+P23944+P43140).
2284

Fill in Ki for COc1ccc(Cl)cc1CN1CCN(C2CCc3cccc4c3N(C2=O)C(C)(C)C4)CC1 (stereo not given) tested with Adrenergic receptor alpha-1 (Rattus norvegicus, UniProt P15823+P23944+P43140).
1056

Fill in Ki for Cc1ccc(CN2CCN(C3CCc4cccc5c4N(CC5)C3=O)CC2)cc1 (stereo not given) tested with Adrenergic receptor alpha-1 (Rattus norvegicus, UniProt P15823+P23944+P43140).
1361

Fill in Ki for COc1cc(C)ccc1CN1CCN(C2CCc3cccc4c3N(C2=O)C(C)(C)C4)CC1 (stereo not given) tested with Adrenergic receptor alpha-1 (Rattus norvegicus, UniProt P15823+P23944+P43140).
653

----------
target: D(4) dopamine receptor (Homo sapiens, UniProt P21917); experiment: Displacement of [3H]-YM 09151 from D4 receptor
Sequence (P21917 whole entry): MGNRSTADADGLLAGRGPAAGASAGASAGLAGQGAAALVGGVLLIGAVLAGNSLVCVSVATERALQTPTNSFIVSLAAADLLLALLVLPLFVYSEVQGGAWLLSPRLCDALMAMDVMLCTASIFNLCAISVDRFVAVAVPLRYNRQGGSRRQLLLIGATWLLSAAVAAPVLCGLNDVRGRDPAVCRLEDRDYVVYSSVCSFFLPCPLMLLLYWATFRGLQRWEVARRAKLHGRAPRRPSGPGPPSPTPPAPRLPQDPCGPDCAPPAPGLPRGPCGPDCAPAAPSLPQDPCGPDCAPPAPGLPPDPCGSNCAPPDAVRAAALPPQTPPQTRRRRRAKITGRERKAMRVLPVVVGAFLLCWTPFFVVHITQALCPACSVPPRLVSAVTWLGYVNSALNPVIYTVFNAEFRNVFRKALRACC
pKi: −log10 of the molar value.
Output Met for pKi not less than 8; output Not met otherwise.

// inclusive: pKi at least 8? input: COc1ccc(C)cc1CN1CCN(C2CCc3cccc4c3N(C2=O)C(C)(C)C4)CC1 (stereo unspecified)
Not met

// inclusive: pKi at least 8? input: O=C1C(N2CCN(Cc3ccc(Cl)cc3)CC2)CCc2cccc3c2N1CC3 (stereo unspecified)
Met

// inclusive: pKi at least 8? input: COc1ccc(Cl)cc1CN1CCN(C2CCc3cccc4c3N(C2=O)C(C)(C)C4)CC1 (stereo unspecified)
Not met

// inclusive: pKi at least 8? input: COc1cc(C)ccc1CN1CCN(C2CCc3cccc4c3N(C2=O)C(C)(C)C4)CC1 (stereo unspecified)
Not met

----------
target: D(2) dopamine receptor (Homo sapiens, UniProt P14416); experiment: D2 receptor functional activity was measured through reversal of quinpirole inhibited, forskolin stimulated cAMP production from whole cells
Sequence (P14416 whole entry): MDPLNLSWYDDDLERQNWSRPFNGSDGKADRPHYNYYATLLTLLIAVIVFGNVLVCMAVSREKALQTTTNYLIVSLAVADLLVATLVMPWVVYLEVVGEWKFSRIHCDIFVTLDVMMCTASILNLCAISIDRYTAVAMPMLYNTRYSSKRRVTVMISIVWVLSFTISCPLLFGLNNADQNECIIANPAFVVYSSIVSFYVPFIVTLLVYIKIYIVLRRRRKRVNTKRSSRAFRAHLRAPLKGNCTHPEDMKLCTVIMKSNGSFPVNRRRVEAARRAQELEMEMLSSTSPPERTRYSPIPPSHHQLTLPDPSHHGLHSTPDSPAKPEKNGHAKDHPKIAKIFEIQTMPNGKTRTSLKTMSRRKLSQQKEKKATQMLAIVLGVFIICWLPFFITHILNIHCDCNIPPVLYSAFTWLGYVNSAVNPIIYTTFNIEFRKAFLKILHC
recordedMetric: pKi
Keep it numeric: pKi is minus log10 of the concentration in mol/L.

Query pKi for O=C1C(N2CCN(Cc3ccc(Cl)cc3)CC2)CCc2cccc3c2N1CC3 (stereo unspecified)
7.21

----------
So I've got a bunch of compounds here, and I need their Ki values.
molecular target: Adrenergic receptor alpha-1 (Rattus norvegicus, UniProt P15823+P23944+P43140); assay: Displacement of [3H]prazosin from alpha-1 adrenergic receptor of rat brain homogenate

Query Ki for CCN1C(=O)C(N2CCN(Cc3ccc(Cl)cc3)CC2)Cc2ccccc21 (stereo unspecified)
1265 nM

Query Ki for CC1(C)Cc2cccc3c2N1C(=O)C(N1CCN(Cc2ccc(Cl)cc2)CC1)CC3 (stereo unspecified)
1735 nM

Query Ki for CC1Cc2cccc3c2N1C(=O)C(N1CCN(Cc2ccc(Cl)cc2)CC1)CC3 (stereo unspecified)
1000 nM

Query Ki for COc1ccc(C)cc1CN1CCN(C2CCc3cccc4c3N(C2=O)C(C)(C)C4)CC1 (stereo unspecified)
983 nM

Query Ki for Cc1ccc(CN2CCN(C3CCc4cccc5c4N(C3=O)C(C)(C)C5)CC2)cc1 (stereo unspecified)
490 nM

Query Ki for CCN1C(=O)C(N2CCN(Cc3ccc(Cl)cc3)CC2)CCc2ccccc21 (stereo unspecified)
2678 nM

----------
So I've got a bunch of compounds here, and I need their Ki values.
molecular target: D(2) dopamine receptor (Homo sapiens); assay: Displacement of [3H]-YM 09151 from D2 receptor
Write the answer as a number in nM, unit excluded.

Fill in Ki for Cc1ccc(CN2CCN(C3CCc4cccc5c4N(C3=O)C(C)(C)C5)CC2)cc1 (stereo not drawn) tested with D(2) dopamine receptor (Homo sapiens).
165

Fill in Ki for COc1ccc(Cl)cc1CN1CCN(C2CCc3cccc4c3N(C2=O)C(C)(C)C4)CC1 (stereo not drawn) tested with D(2) dopamine receptor (Homo sapiens).
220

Fill in Ki for Cc1ccc(CN2CCN(C3CCc4cccc5c4N(C3=O)C(C)C5)CC2)cc1 (stereo not drawn) tested with D(2) dopamine receptor (Homo sapiens).
26

Fill in Ki for O=C1C(N2CCN(Cc3ccc(Cl)cc3)CC2)CCc2cccc3c2N1CC3 (stereo not drawn) tested with D(2) dopamine receptor (Homo sapiens).
116

Fill in Ki for Cc1ccc(CN2CCN(C3CCc4cccc5c4N(CC5)C3=O)CC2)cc1 (stereo not drawn) tested with D(2) dopamine receptor (Homo sapiens).
209

Fill in Ki for COc1ccc(C)cc1CN1CCN(C2CCc3cccc4c3N(C2=O)C(C)(C)C4)CC1 (stereo not drawn) tested with D(2) dopamine receptor (Homo sapiens).
313

Fill in Ki for COc1cc(C)ccc1CN1CCN(C2CCc3cccc4c3N(C2=O)C(C)(C)C4)CC1 (stereo not drawn) tested with D(2) dopamine receptor (Homo sapiens).
952

Fill in Ki for CC1Cc2cccc3c2N1C(=O)C(N1CCN(Cc2ccc(Cl)cc2)CC1)CC3 (stereo not drawn) tested with D(2) dopamine receptor (Homo sapiens).
139
